Where do the numbers come from? From the Immune Epitope Database (IEDB).

SYSTEM_TESTED: HLA-B*15:01
ASSAY_PROTOCOL: IEDB peptide-MHC binding, purified MHC/direct/fluorescence; filed as Kd, often an IC50 or EC50 that approximates it; bounds were set here for any values at or beyond the usual limits of such assays
CONDITION_SUMMARY: source organism: West Nile virus
MEASURED_PARAMETER: Kd

Would you kindly share the measured Kd for `YCPGTTVTL` ?
≥ 20 µM

* * *

SYSTEM_TESTED: HLA-A*02:11
ASSAY_PROTOCOL: IEDB peptide-MHC binding, purified MHC/direct/fluorescence; filed as Kd, often an IC50 or EC50 that approximates it; bounds were set here for any values at or beyond the usual limits of such assays
CONDITION_SUMMARY: source organism: Vibrio parahaemolyticus RIMD 2210633
MEASURED_PARAMETER: Kd

Request body: readout Kd, system HLA-A*02:11, query `DTWHGFKNM` . Return the value.
≥ 20 µM
